# measured target: FACI-24 (Bos taurus, UniProt P07107, M25C)
# Construct: made in house; host or cells: E. coli BL21(DE3)pLysS, pET3a vector
# Sequence (P07107 2-87 M25C): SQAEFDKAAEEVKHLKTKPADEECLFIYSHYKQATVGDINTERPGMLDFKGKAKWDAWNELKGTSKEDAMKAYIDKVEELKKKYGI
# protocol: Fluorescence emission change of FACI-24 on titration with CoA and acyl-CoA esters
# Assay type: binding, bovine
# study conditions: emission maximum without ligand 510 nm; excitation 400 nm
quantity measured: Downshift in emission maximum of FACI-24 (nm)
Return type: number; implicit unit nm.

Completed entries (count: 5):
State the recorded Downshift in emission maximum of FACI-24 for this entry: CCCCCCCCCCCC(=O)SCCNC(=O)CCNC(=O)[C@H](O)C(C)(C)COP(=O)(O)OP(=O)(O)OC[C@H]1O[C@@H](n2cnc3c(N)ncnc32)[C@H](O)[C@@H]1OP(=O)(O)O
42

State the recorded Downshift in emission maximum of FACI-24 for this entry: CCCC(=O)SCCNC(=O)CCNC(=O)[C@H](O)C(C)(C)COP(=O)(O)OP(=O)(O)OC[C@H]1O[C@@H](n2cnc3c(N)ncnc32)[C@H](O)[C@@H]1OP(=O)(O)O
16

State the recorded Downshift in emission maximum of FACI-24 for this entry: CC(C)(COP(=O)(O)OP(=O)(O)OC[C@H]1O[C@@H](n2cnc3c(N)ncnc32)[C@H](O)[C@@H]1OP(=O)(O)O)[C@@H](O)C(=O)NCCC(=O)NCCS
0

State the recorded Downshift in emission maximum of FACI-24 for this entry: CCCCCCCCCCCCCCCC(=O)SCCNC(=O)CCNC(=O)[C@H](O)C(C)(C)COP(=O)(O)OP(=O)(O)OC[C@H]1O[C@@H](n2cnc3c(N)ncnc32)[C@H](O)[C@@H]1OP(=O)(O)O
46

State the recorded Downshift in emission maximum of FACI-24 for this entry: CCCCCCCC(=O)SCCNC(=O)CCNC(=O)[C@H](O)C(C)(C)COP(=O)(O)OP(=O)(O)OC[C@H]1O[C@@H](n2cnc3c(N)ncnc32)[C@H](O)[C@@H]1OP(=O)(O)O
34

Could you now look at the following molecule, please?
State the recorded Downshift in emission maximum of FACI-24 for this entry: CCCCCCCCCCCCCCCCCCCC(=O)SCCNC(=O)CCNC(=O)[C@H](O)C(C)(C)COP(=O)(O)OP(=O)(O)OC[C@H]1O[C@@H](n2cnc3c(N)ncnc32)[C@H](O)[C@@H]1OP(=O)(O)O
46
